molecular target: His6 PmFREP (PmFREP; PL5-1) (Penaeus monodon, UniProt A0A068LKH5, G184D); construct: full length without native signal peptide; XEEL signal peptide (cleaved), N-terminal His6 tag kept; native part starts GTTERTDTA (from primer); Trichoplusia ni cells; disulfide-linked dimer of pentamers; test: inhibition of human red blood cell (type A) agglutination; format: cell-based; settings: 0.5 uM His6 PmFREP, 3% (v/v) red blood cells; multivalent avidity assay
Sequence (A0A068LKH5 entry or part of it G184D): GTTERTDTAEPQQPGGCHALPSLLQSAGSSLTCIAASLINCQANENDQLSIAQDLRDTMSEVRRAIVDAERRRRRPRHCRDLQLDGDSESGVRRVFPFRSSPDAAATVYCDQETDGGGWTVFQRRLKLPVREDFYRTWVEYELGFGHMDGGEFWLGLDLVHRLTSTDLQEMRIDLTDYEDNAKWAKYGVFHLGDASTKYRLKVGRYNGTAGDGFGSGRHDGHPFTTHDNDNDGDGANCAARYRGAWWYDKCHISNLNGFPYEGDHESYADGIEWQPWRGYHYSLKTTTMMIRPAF
Provide the recorded concentration inhibiting agglutination for the entries that follow.

Worked set:
CC(=O)N[C@H]1[C@H]([C@H](O)[C@H](O)CO)OC(O)(C(=O)O)C[C@@H]1O (stereo partly shown) : 5 mM
CC(=O)N[C@@H]1C(O)O[C@H](CO)[C@@H](O)[C@@H]1O (stereo partly shown) : 1 mM
CC(=O)N[C@H]1C(O)O[C@H](CO)[C@@H](O)[C@@H]1O (stereo partly shown) : ~ 10 mM

Lab note: next molecule to report on.
// lookup concentration inhibiting agglutination for CC(=O)N[C@H]1C(O)O[C@H](CO)[C@H](O)[C@@H]1O (stereo partly shown)
~ 10 mM
